Origin of the recorded values: the supplement of paper PMC9233669

system: biotinyl-Trp-oxazolone; assay: self-aminoacylation, catalytic enhancement (BWO) (fold over background); higher = more active; k-Seq, kA / k0A0; sequences stand for … in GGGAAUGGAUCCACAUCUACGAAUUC…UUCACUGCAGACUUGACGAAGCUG
Fewer inactive variants are shown than the library holds.
outcome measure: self-aminoacylation

>  <macromolecule sequence>
AAGUUUGCUAAAGGUCGCAAG [Fam3.1 aminoacylation ribozyme variant]

>  <recorded measurement>
0.835

$$$$
>  <macromolecule sequence>
CUACCUCAAACAAUCGGUUUG [Fam1A.1 aminoacylation ribozyme variant]

>  <recorded measurement>
1.56

$$$$
>  <macromolecule sequence>
CUACCUCAAACAAUAGGUCUG [Fam1A.1 aminoacylation ribozyme variant]

>  <recorded measurement>
0.691

$$$$
>  <macromolecule sequence>
CGACACUUCCAGCAAUCGGUC [Fam1B.1 aminoacylation ribozyme variant]

>  <recorded measurement>
1.15

$$$$
>  <macromolecule sequence>
CCACACUCCAAGCAAUCGGUC [Fam1B.1 aminoacylation ribozyme variant]

>  <recorded measurement>
1.59

$$$$
>  <macromolecule sequence>
CCACAGUUCAAGCAAUCGGUG [Fam1B.1 aminoacylation ribozyme variant]

>  <recorded measurement>
3.62

$$$$
>  <macromolecule sequence>
UUACUUCAACCAAUCGGUCUG [Fam1A.1 aminoacylation ribozyme variant]

>  <recorded measurement>
11.2

$$$$
>  <macromolecule sequence>
AAGUAUGCUAAAAGUCGCAAG [Fam3.1 aminoacylation ribozyme variant]

>  <recorded measurement>
3.97

$$$$
>  <macromolecule sequence>
AUUACCCUGGUCUUCGACUGA [Fam2.1 aminoacylation ribozyme variant]

>  <recorded measurement>
0.675

$$$$
>  <macromolecule sequence>
CCGAACUUCAAGCAAUCGGUC [Fam1B.1 aminoacylation ribozyme variant]

>  <recorded measurement>
20.6

$$$$
>  <macromolecule sequence>
AAAUUUGCUACUAGUCGCAAG [Fam3.1 aminoacylation ribozyme variant]

>  <recorded measurement>
2.54

$$$$
>  <macromolecule sequence>
AUUCACGUAGGUCAGCGGGUG [Fam2.2 aminoacylation ribozyme variant]

>  <recorded measurement>
2.71

$$$$
>  <macromolecule sequence>
CCACACUUCCAGCAAUCGGGC [Fam1B.1 aminoacylation ribozyme variant]

>  <recorded measurement>
2.82

$$$$
>  <macromolecule sequence>
AUUCGCCUAGGCCAUCGGGUG [Fam2.2 aminoacylation ribozyme variant]

>  <recorded measurement>
4.7

$$$$
>  <macromolecule sequence>
AUUACCCUUGGCAUCGAGUGA [Fam2.1 aminoacylation ribozyme variant]

>  <recorded measurement>
8.88

$$$$
>  <macromolecule sequence>
AUUACCCUGGCCAUAGAGUGA [Fam2.1 aminoacylation ribozyme variant]

>  <recorded measurement>
6.32

$$$$
>  <macromolecule sequence>
CCACACUUGAAGCAAUUGGUC [Fam1B.1 aminoacylation ribozyme variant]

>  <recorded measurement>
0.386

$$$$
>  <macromolecule sequence>
AUUCACCCAGGUCAUCGUGUG [Fam2.2 aminoacylation ribozyme variant]

>  <recorded measurement>
1.1

$$$$
>  <macromolecule sequence>
CUAUUUCAAACAAACGGUCUG [Fam1A.1 aminoacylation ribozyme variant]

>  <recorded measurement>
0.586

$$$$
>  <macromolecule sequence>
AUUCACCUAGGUCUGCGGGUG [Fam2.2 aminoacylation ribozyme variant]

>  <recorded measurement>
3.44

$$$$
>  <macromolecule sequence>
CUAUUUCAAACAAUCCGUCUG [Fam1A.1 aminoacylation ribozyme variant]

>  <recorded measurement>
0.595

$$$$
>  <macromolecule sequence>
CUACUUCAAACAAUCCGUCGG [Fam1A.1 aminoacylation ribozyme variant]

>  <recorded measurement>
0.636

$$$$
>  <macromolecule sequence>
AUUUACCUAGGUCAUUGGGUG [Fam2.2 aminoacylation ribozyme variant]

>  <recorded measurement>
3.11

$$$$
>  <macromolecule sequence>
CUUCUUCAAACCAUCGGUCUG [Fam1A.1 aminoacylation ribozyme variant]

>  <recorded measurement>
0.509

$$$$
>  <macromolecule sequence>
CCAUACUUCAAGCAAUAGGUC [Fam1B.1 aminoacylation ribozyme variant]

>  <recorded measurement>
0.513

$$$$
>  <macromolecule sequence>
CCACACUUCAAGCAAUAGUUC [Fam1B.1 aminoacylation ribozyme variant]

>  <recorded measurement>
0.431

$$$$
>  <macromolecule sequence>
CCACACAUCAAGCAAUAGGUC [Fam1B.1 aminoacylation ribozyme variant]

>  <recorded measurement>
0.736

$$$$
>  <macromolecule sequence>
CCAAUCUUCAAGCAAUCGGUC [Fam1B.1 aminoacylation ribozyme variant]

>  <recorded measurement>
10.7

$$$$
>  <macromolecule sequence>
AAGUUUGCUAAUUGUCGCAAC [Fam3.1 aminoacylation ribozyme variant]

>  <recorded measurement>
2.13

$$$$
>  <macromolecule sequence>
AUUAGCCAGGUCAUCGAGUGA [Fam2.1 aminoacylation ribozyme variant]

>  <recorded measurement>
6.91

$$$$
>  <macromolecule sequence>
AAGUGUGCUAAUAAUCGCAAG [Fam3.1 aminoacylation ribozyme variant]

>  <recorded measurement>
1.09

$$$$
>  <macromolecule sequence>
AAGUAUUCUAAUAGUCGCAAG [Fam3.1 aminoacylation ribozyme variant]

>  <recorded measurement>
1.83

$$$$
>  <macromolecule sequence>
AUUCACGUAGGUUAUCGGGUG [Fam2.2 aminoacylation ribozyme variant]

>  <recorded measurement>
4.68

$$$$
>  <macromolecule sequence>
CUACUUCAAACUAUCGCUCUG [Fam1A.1 aminoacylation ribozyme variant]

>  <recorded measurement>
0.664

$$$$
>  <macromolecule sequence>
AAGUUUGCCAAUAGUCGCGAG [Fam3.1 aminoacylation ribozyme variant]

>  <recorded measurement>
3.77

$$$$
